experiment: qHTS for differential inhibitors of proliferation of Plasmodium falciparum line HB3 (AID 1886); conditions: Plasmodium falciparum HB3 proliferation inhibition; series mostly up to 28.7 µM;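 further: parasites grown with compound for 72 h before SYBR Green readout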; further: potency means the concentration at half of the fitted maximal effect
Results filed as inconclusive are left out. Active and inactive are the calls of the source. The call rests on the fitted dose curve; in most records, active means well fitted curve in the direction sought with a large enough effect; inconclusive means small, poorly fitted or top-dose-only effect, or another doubt; inactive means no such curve, though single readings can be large or run the other way.
endpoint_label: Potency

compound="CCCC[N+]1(C)C2CC(OC(=O)C(CO)c3ccccc3)CC1C1OC12 (configuration not stated)" endpoint_label=Potency readout_value=inactive
compound="C[N+]1(C)C2CC(OC(=O)C(CO)c3ccccc3)CC1C1OC12 (configuration not stated)" endpoint_label=Potency readout_value=inactive
compound=COc1cc(C[C@@H](C)N)c(OC)cc1I endpoint_label=Potency readout_value=inactive
compound="C[C@]12C=CC(=O)C=C1CCC1C2=CC[C@]2(C)[C@@H](C(=O)CN3CCN(c4cc(N5CCCC5)nc(N5CCCC5)n4)CC3)CC[C@@H]12 (some centres not stated)" endpoint_label=Potency readout_value="1410 nM (active)"
compound=CCCN(CCC)[C@@H]1CCc2c(F)ccc(O)c2C1 endpoint_label=Potency readout_value="1410 nM (active)"
compound=C[C@H]1C2Cc3ccc(O)cc3[C@]1(C)CCN2CC1CC1 endpoint_label=Potency readout_value=inactive
compound=NCC#Cc1ccccc1 endpoint_label=Potency readout_value=inactive
compound=NNCc1cccc(O)c1 endpoint_label=Potency readout_value="14100 nM (active)"
compound="CCCN1CCCC(c2cccc(O)c2)C1 (configuration not stated)" endpoint_label=Potency readout_value=inactive
compound="CCCCN1C2CCC1CC(OC(c1ccc(F)cc1)c1ccc(F)cc1)C2 (configuration not stated)" endpoint_label=Potency readout_value="1000 nM (active)"
compound="CCCN1CCc2cc(O)cc3c2C1Cc1ccc(O)c(O)c1-3 (configuration not stated)" endpoint_label=Potency readout_value="3550 nM (active)"
compound="CC(C)(O)C1C2OC(=O)C1[C@]1(O)C[C@H]3O[C@]34C(=O)O[C@H]2[C@]14C (some centres not stated) (tested in a mixture with another compound)" endpoint_label=Potency readout_value=inactive
compound="CC(C)[C@@]1(NC(=O)[C@@H]2C[C@@H]3c4cccc5[nH]cc(c45)C[C@H]3N(C)C2)O[C@@]2(O)C3CCCN3C(=O)[C@H](Cc3ccccc3)N2C1=O (some centres not stated)" endpoint_label=Potency readout_value="891 nM (active)"
compound=C[C@H]1OC[C@@H](C[N+](C)(C)C)O1 endpoint_label=Potency readout_value=inactive
compound="CCC(CO)NC(=O)[C@@H]1C=C2c3cccc4[nH]cc(c34)C[C@H]2N(C)C1 (some centres not stated)" endpoint_label=Potency readout_value="10000 nM (active)"
compound="C#CCN(C)C(C)Cc1ccccc1 (configuration not stated)" endpoint_label=Potency readout_value=inactive
compound=CCN1C[C@]2(C)CC[C@H](O)[C@@]34[C@@H]5C[C@@H]6[C@@H](OC)C[C@@](O)(C5[C@H]6O)[C@@H](C[C@@H]23)[C@@H]14 endpoint_label=Potency readout_value=inactive
